tested on: P12-Ichikawa; assay: cell viability relative to DMSO control; higher = less cytotoxic; details: RPMI 5 mM glucose + 10% dialyzed FBS; 48 h; 0.00702 µM
Recorded cell viability by entry
Give the number first and the unit second.

Solved cases below.
MOLECULE: O=C1c2c(O)ccc(O)c2C(=O)c2c(NCCNCCO)ccc(NCCNCCO)c21
ASSAYED SYSTEM: P12-Ichikawa
RESULT: 98%

MOLECULE: OC[C@H]1OCC(O1)[N@@]2C=CC(N)=NC2=O (stereo partly drawn)
ASSAYED SYSTEM: P12-Ichikawa
RESULT: 115%

MOLECULE: CC(C)C1=C(O)C=C(O)C(=C1)C/2=N/NC(=O)N2C3=CC4=C(C=C3)[N](C)C=C4
ASSAYED SYSTEM: P12-Ichikawa
RESULT: 127%

MOLECULE: CCn1c(-c2nonc2N)nc2cnc(Oc3cccc(NC(=O)c4ccc(OCCN5CCOCC5)cc4)c3)cc21
ASSAYED SYSTEM: P12-Ichikawa
RESULT: 127%

MOLECULE: CN(NC(=O)CC(=O)NN(C)C(=S)c1ccccc1)C(=S)c1ccccc1
ASSAYED SYSTEM: P12-Ichikawa
RESULT: 102%

Data request: Recorded cell viability for `CC(C)=CC[C@@H](O)C/1=C/C(=O)C2=C(O)C=CC(=C2C1=O)O` with P12-Ichikawa, please?
Data returned: 108%

Data request: Enter reported cell viability observed with P12-Ichikawa for `CC(C)NC[C@@H](C(=O)N1CCN(c2ncnc3c2[C@H](C)C[C@H]3O)CC1)c1ccc(Cl)cc1`
Data returned: 114%

Data request: For P12-Ichikawa, provide cell viability of `C/C=C(/C)C(=O)O[C@H]1C(C)=C[C@]23C(=O)[C@@H](C=C(CO)[C@@H](O)[C@]12O)[C@H]1[C@@H](C[C@H]3C)C1(C)C` please.
Data returned: 101%
